assay: Ratio of drug level in spleen to plasma in male Beagle dog at 200 mg/kg, sc after 3 months; type: ADME, organism-based, Canis lupus familiaris; design: dose 200 mg/kg, route subcutaneous
Quantity Measured: Kp at 2191.5 h

Ask: Name the reported Kp at 2191.5 h value associated with the compound Cc1cc(/C=C/C#N)cc(C)c1Nc1ccnc(Nc2ccc(C#N)cc2)n1
Reply: 2.5

###

experiment: Cmax in female dog at 400 mg administered intramuscularly after 29 days; conditions: in vivo, im
Quantity Measured: Cmax (ng/mL)
Please state the figure in ng/mL; there is no need to write the unit.

Ask: Name the reported Cmax value associated with the molecule Cc1cc(/C=C/C#N)cc(C)c1Nc1ccnc(Nc2ccc(C#N)cc2)n1 [RILPIVIRINE]
Reply: 6190

###

experiment: Ratio of drug level in thymus to plasma in female Beagle dog at 400 mg/kg administered intramuscularly after 1 month; type: ADME, organism-based, Canis lupus familiaris; set-up: dose 400 mg/kg, route intramuscular; settings: im
Quantity Measured: Kp at 730.5 h
Note: the reply should be a number with no unit written.

Ask: Name the reported Kp at 730.5 h value associated with the compound Cc1cc(/C=C/C#N)cc(C)c1Nc1ccnc(Nc2ccc(C#N)cc2)n1
Reply: 6

###

test: Ratio of drug level in thymus to plasma in female Beagle dog at 200 mg/kg administered intramuscularly after 1 month; type: ADME, organism-based, Canis lupus familiaris; set-up: dose 200 mg/kg, route intramuscular; details: im
Quantity Measured: Kp at 730.5 h

Ask: Name the reported Kp at 730.5 h value associated with the compound Cc1cc(/C=C/C#N)cc(C)c1Nc1ccnc(Nc2ccc(C#N)cc2)n1 [RILPIVIRINE]
Reply: 5.7

###

test: Ratio of drug level in spleen to plasma in female Beagle dog at 400 mg/kg administered intramuscularly after 3 months; type: ADME, organism-based, Canis lupus familiaris; parameters: dose 400 mg/kg, route intramuscular; conditions: im
Quantity Measured: Kp at 2191.5 h
Note: the reply should be a number with no unit written.

Ask: Name the reported Kp at 2191.5 h value associated with the compound Cc1cc(/C=C/C#N)cc(C)c1Nc1ccnc(Nc2ccc(C#N)cc2)n1
Reply: 2.3

###

assay: Drug level in male Beagle dog thymus at 200 mg/kg administered intramuscularly after 3 months; type: ADME, organism-based, Canis lupus familiaris; design: dose 200 mg/kg, route intramuscular; settings: im, read-out: Drug uptake
Quantity Measured: concentration at 2191.5 h (ng/g)
Please state the figure in ng/g; there is no need to write the unit.

Ask: Name the reported concentration at 2191.5 h value associated with the molecule Cc1cc(/C=C/C#N)cc(C)c1Nc1ccnc(Nc2ccc(C#N)cc2)n1 [RILPIVIRINE]
Reply: 34.4

###

experiment: Absolute bioavailability in Beagle dog at 5 mg/kg, sc after 176 days; format: ADME, organism-based, Canis lupus familiaris; settings: in vivo
Quantity Measured: bioavailability (%)
Please state the figure in %; there is no need to write the unit.

Ask: Name the reported bioavailability value associated with the compound Cc1cc(/C=C/C#N)cc(C)c1Nc1ccnc(Nc2ccc(C#N)cc2)n1
Reply: 80

###

assay: Plasma concentration in Beagle dog at 5 mg/kg, sc after 3 months; format: ADME, organism-based, Canis lupus familiaris; set-up: dose 5 mg/kg, route subcutaneous
Quantity Measured: concentration at 2191.5 h
Note: a bare number is incomplete; add the unit.

Ask: Name the reported concentration at 2191.5 h value associated with the molecule Cc1cc(/C=C/C#N)cc(C)c1Nc1ccnc(Nc2ccc(C#N)cc2)n1
Reply: 3.3 ng/mL

###

experiment: Ratio of drug level in thymus to plasma in female Beagle dog at 400 mg/kg, sc after 1 month; type: ADME, organism-based, Canis lupus familiaris; set-up: dose 400 mg/kg, route subcutaneous
Quantity Measured: Kp at 730.5 h
Note: the reply should be a number with no unit written.

Ask: Name the reported Kp at 730.5 h value associated with the compound Cc1cc(/C=C/C#N)cc(C)c1Nc1ccnc(Nc2ccc(C#N)cc2)n1
Reply: 5

###

test: Drug level in Beagle dog skin at injected site at 5 mg/kg, sc after 3 months; format: ADME, organism-based, Canis lupus familiaris, Zone of skin; parameters: dose 5 mg/kg, route subcutaneous; details: read-out: Drug uptake
Quantity Measured: concentration at 2191.5 h (ng/g)
Please state the figure in ng/g; there is no need to write the unit.

Ask: Name the reported concentration at 2191.5 h value associated with the compound Cc1cc(/C=C/C#N)cc(C)c1Nc1ccnc(Nc2ccc(C#N)cc2)n1 [RILPIVIRINE]
Reply: 223000

###

assay: Drug level in male Beagle dog spleen at 200 mg/kg administered intramuscularly after 1 month; assay type: ADME, organism-based, Canis lupus familiaris; set-up: dose 200 mg/kg, route intramuscular; details: im, read-out: Drug uptake
Quantity Measured: concentration at 730.5 h (ng/g)
Please state the figure in ng/g; there is no need to write the unit.

Ask: Name the reported concentration at 730.5 h value associated with the compound Cc1cc(/C=C/C#N)cc(C)c1Nc1ccnc(Nc2ccc(C#N)cc2)n1
Reply: 133

###

assay: Plasma concentration in female Beagle dog at 200 mg/kg, sc after 3 months; format: ADME, organism-based, Canis lupus familiaris; design: dose 200 mg/kg, route subcutaneous
Quantity Measured: concentration at 2191.5 h (ng/mL)
Please state the figure in ng/mL; there is no need to write the unit.

Ask: Name the reported concentration at 2191.5 h value associated with the compound Cc1cc(/C=C/C#N)cc(C)c1Nc1ccnc(Nc2ccc(C#N)cc2)n1
Reply: 26.8

###

assay: Drug level in Beagle dog lymph node popliteal at 5 mg/kg, sc after 3 months; type: ADME, organism-based, Canis lupus familiaris; set-up: dose 5 mg/kg, route subcutaneous; conditions: read-out: Drug uptake
Quantity Measured: concentration at 2191.5 h (ng/g)
Please state the figure in ng/g; there is no need to write the unit.

Ask: Name the reported concentration at 2191.5 h value associated with the compound Cc1cc(/C=C/C#N)cc(C)c1Nc1ccnc(Nc2ccc(C#N)cc2)n1 [RILPIVIRINE]
Reply: 26.8

###

assay: Tmax in Beagle dog at 5 mg/kg administered intramuscularly after 176 days; assay type: ADME, organism-based, Canis lupus familiaris; parameters: dose 5 mg/kg, route intramuscular; details: in vivo, im
Quantity Measured: Tmax (min)
Please state the figure in min; there is no need to write the unit.

Ask: Name the reported Tmax value associated with the molecule Cc1cc(/C=C/C#N)cc(C)c1Nc1ccnc(Nc2ccc(C#N)cc2)n1
Reply: 30

###

assay: AUC (0 to last) in female dog at 200 mg, sc after 29 days; conditions: plasma
Quantity Measured: AUC(0-t) at 696 h (ng·h/mL)
Please state the figure in ng·h/mL; there is no need to write the unit.

Ask: Name the reported AUC(0-t) at 696 h value associated with the compound Cc1cc(/C=C/C#N)cc(C)c1Nc1ccnc(Nc2ccc(C#N)cc2)n1
Reply: 70600

###

experiment: Ratio of drug level in spleen to plasma in male Beagle dog at 400 mg/kg administered intramuscularly after 1 month; assay type: ADME, organism-based, Canis lupus familiaris; parameters: dose 400 mg/kg, route intramuscular; settings: im
Quantity Measured: Kp at 730.5 h
Note: the reply should be a number with no unit written.

Ask: Name the reported Kp at 730.5 h value associated with the compound Cc1cc(/C=C/C#N)cc(C)c1Nc1ccnc(Nc2ccc(C#N)cc2)n1
Reply: 2.2

###

test: Ratio of drug level in lymph node popliteal to plasma in Beagle dog at 5 mg/kg, sc after 1 month; assay type: ADME, organism-based, Canis lupus familiaris; design: dose 5 mg/kg, route subcutaneous
Quantity Measured: Kp at 730.5 h
Note: the reply should be a number with no unit written.

Ask: Name the reported Kp at 730.5 h value associated with the compound Cc1cc(/C=C/C#N)cc(C)c1Nc1ccnc(Nc2ccc(C#N)cc2)n1 [RILPIVIRINE]
Reply: 4.1

###

test: Drug level in Beagle dog skin at injected site at 5 mg/kg administered intramuscularly after 3 months; assay type: ADME, organism-based, Canis lupus familiaris, Zone of skin; parameters: dose 5 mg/kg, route intramuscular; settings: im, read-out: Drug uptake
Quantity Measured: concentration at 2191.5 h (ng/g)
Please state the figure in ng/g; there is no need to write the unit.

Ask: Name the reported concentration at 2191.5 h value associated with the molecule Cc1cc(/C=C/C#N)cc(C)c1Nc1ccnc(Nc2ccc(C#N)cc2)n1
Reply: 16.7

###

assay: Tmax in Beagle dog at 5 mg/kg administered intramuscularly after 184 days; format: ADME, organism-based, Canis lupus familiaris; parameters: dose 5 mg/kg, route intramuscular; conditions: in vivo, im
Quantity Measured: Tmax

Ask: Name the reported Tmax value associated with the molecule Cc1cc(/C=C/C#N)cc(C)c1Nc1ccnc(Nc2ccc(C#N)cc2)n1
Reply: 24 h
